B1: TPR t1 (parent)
chain: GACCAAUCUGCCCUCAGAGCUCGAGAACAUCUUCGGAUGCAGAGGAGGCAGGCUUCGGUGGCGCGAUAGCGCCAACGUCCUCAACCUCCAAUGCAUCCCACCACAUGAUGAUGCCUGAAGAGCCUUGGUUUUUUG

# Variants of: B1
# method-summary: polymerase ribozyme fitness, log enrichment relative to wild type (log ratio); higher = more active; in vitro selection for triplet polymerase activity

[
  {
    "alteration": "G57U G93A G110C",
    "polymerase ribozyme fitness (log ratio)": -5.09
  },
  {
    "alteration": "A84U C115A U125G",
    "polymerase ribozyme fitness (log ratio)": -0.872
  },
  {
    "alteration": "A68G U112G",
    "polymerase ribozyme fitness (log ratio)": -2.31
  },
  {
    "alteration": "U59G C104A A105U G110A",
    "polymerase ribozyme fitness (log ratio)": -5.5
  },
  {
    "alteration": "G93C G127A",
    "polymerase ribozyme fitness (log ratio)": -1.89
  },
  {
    "alteration": "C76G C123U",
    "polymerase ribozyme fitness (log ratio)": 1.06
  },
  {
    "alteration": "G39U C124A",
    "polymerase ribozyme fitness (log ratio)": 0.161
  },
  {
    "alteration": "A5U G120U",
    "polymerase ribozyme fitness (log ratio)": 0.128
  },
  {
    "alteration": "A24G G61U C86G",
    "polymerase ribozyme fitness (log ratio)": -3.34
  },
  {
    "alteration": "A37U G48U U55A",
    "polymerase ribozyme fitness (log ratio)": -1.56
  },
  {
    "alteration": "C13G A37U U38C C62U",
    "polymerase ribozyme fitness (log ratio)": -4.23
  },
  {
    "alteration": "G44C U92G U112C",
    "polymerase ribozyme fitness (log ratio)": -0.938
  },
  {
    "alteration": "C11U G61A",
    "polymerase ribozyme fitness (log ratio)": 0.135
  },
  {
    "alteration": "G39A C123A",
    "polymerase ribozyme fitness (log ratio)": -0.277
  },
  {
    "alteration": "C12G A108G",
    "polymerase ribozyme fitness (log ratio)": -1.2
  },
  {
    "alteration": "C13G C124G U126A U131A",
    "polymerase ribozyme fitness (log ratio)": -0.0429
  },
  {
    "alteration": "G42U G61C",
    "polymerase ribozyme fitness (log ratio)": -3.59
  },
  {
    "alteration": "A6G G39A C86U G117A",
    "polymerase ribozyme fitness (log ratio)": -0.696
  },
  {
    "alteration": "G17U C34A U112A G120C",
    "polymerase ribozyme fitness (log ratio)": -6.92
  },
  {
    "alteration": "U9G G17A C56U A83U C89A C101A",
    "polymerase ribozyme fitness (log ratio)": -4.6
  },
  {
    "alteration": "C15G A16U G69C",
    "polymerase ribozyme fitness (log ratio)": -4.45
  },
  {
    "alteration": "C4U C49U C56G C114A G127A",
    "polymerase ribozyme fitness (log ratio)": -3.57
  },
  {
    "alteration": "U9G C97U A100C A108G",
    "polymerase ribozyme fitness (log ratio)": -2.87
  },
  {
    "alteration": "A41U G60U U78A A95G U126A",
    "polymerase ribozyme fitness (log ratio)": -4.53
  },
  {
    "alteration": "C28G C40U C86A",
    "polymerase ribozyme fitness (log ratio)": -3.65
  },
  {
    "alteration": "A2C G52A C79A A95U C123U G135A",
    "polymerase ribozyme fitness (log ratio)": -1.79
  },
  {
    "alteration": "G42C A46U G60C",
    "polymerase ribozyme fitness (log ratio)": -2.77
  },
  {
    "alteration": "C13A A119U",
    "polymerase ribozyme fitness (log ratio)": 0.145
  },
  {
    "alteration": "G52U A74G A84G A121U",
    "polymerase ribozyme fitness (log ratio)": 0.168
  },
  {
    "alteration": "A46C C56G C70A",
    "polymerase ribozyme fitness (log ratio)": -5.02
  },
  {
    "alteration": "C12G G48C C49A U55C G61A A95G G110A",
    "polymerase ribozyme fitness (log ratio)": -2.17
  },
  {
    "alteration": "G69U A83U",
    "polymerase ribozyme fitness (log ratio)": -0.34
  },
  {
    "alteration": "C15G U32C A43G G45U C89G",
    "polymerase ribozyme fitness (log ratio)": -4.49
  },
  {
    "alteration": "C13U C124U",
    "polymerase ribozyme fitness (log ratio)": 1.96
  }
]
